# Ki values compiled below
Target of assay: 5-HT1B (Homo sapiens, UniProt P28222)
Sequence (P28222 whole entry): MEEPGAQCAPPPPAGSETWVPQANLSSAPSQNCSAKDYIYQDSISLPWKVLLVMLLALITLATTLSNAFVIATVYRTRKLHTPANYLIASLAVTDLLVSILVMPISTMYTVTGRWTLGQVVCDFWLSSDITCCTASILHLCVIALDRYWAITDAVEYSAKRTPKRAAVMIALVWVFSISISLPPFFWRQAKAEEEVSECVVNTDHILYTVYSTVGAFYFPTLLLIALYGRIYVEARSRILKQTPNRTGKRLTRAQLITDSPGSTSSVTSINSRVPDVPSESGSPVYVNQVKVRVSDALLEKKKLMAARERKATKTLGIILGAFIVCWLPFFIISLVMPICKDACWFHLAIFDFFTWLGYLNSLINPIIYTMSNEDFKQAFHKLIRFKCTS
Test: PDSP screening affinity 5-HT1B
Type: binding
Experimental parameters: 5-HT1B affinity
Just the number please, in µM, no unit attached.

Some solved cases for reference:
1) COc1ccc2[nH]cc(CCNCc3cccc(Br)c3)c2c1 = 6.43
2) COc1ccc2[nH]cc(CCNCc3cccc(Cl)c3)c2c1 = 4.39
3) COc1cc(CCNCc2ccc(Br)cc2)c(OC)cc1I = 5.09

Ki of COc1cccc(CNCCc2cc(OC)c(I)cc2OC)c1 on 5-HT1B (Homo sapiens, UniProt P28222)? 3.23
